system: Escherichia coli ATCC 25922
Define the label as Fulfilled when MIC is strictly less than 20 µM and as Not fulfilled in all remaining cases.

# cpd.smiles, label
records = [
    ("CC[C@H](C)[C@H](NC(=O)CNC(=O)[C@H](CO)NC(=O)[C@H](C)NC(=O)[C@@H](NC(=O)[C@H](CCCN=C(N)N)NC(=O)CNC(=O)[C@@H](NC(=O)[C@H](CC(C)C)NC(=O)[C@@H]1CCCN1C(=O)[C@H](CC(C)C)NC(=O)[C@@H](N)Cc1ccccc1)[C@@H](C)CC)C(C)C)C(=O)N[C@@H](CC(C)C)C(N)=O", "Not fulfilled"),
    ("CC[C@H](C)[C@H](NC(=O)[C@H](Cc1ccc(O)cc1)NC(=O)[C@H](CCC(N)=O)NC(=O)[C@H](CC(C)C)NC(=O)[C@H](C)NC(=O)[C@H](CCCCN)NC(=O)[C@H](CCCCN)NC(=O)[C@H](CCSC)NC(=O)[C@H](CCCCN)NC(=O)[C@H](CCCCN)NC(=O)[C@@H](N)CCCCN)C(=O)N[C@@H](CCCCN)C(=O)N[C@@H](CC(C)C)C(=O)N[C@@H](CC(C)C)C(=O)N[C@@H](CCCCN)C(=O)N[C@@H](CCC(=O)O)C(N)=O", "Not fulfilled"),
    ("CC[C@H](C)[C@H](NC(=O)CNC(=O)[C@H](C)NC(=O)[C@H](Cc1ccccc1)NC(=O)[C@H](CC(C)C)NC(=O)[C@H](CCCCN)NC(=O)[C@@H]1CCCN1C(=O)[C@H](CC(C)C)NC(=O)[C@@H](N)Cc1ccccc1)C(=O)N[C@H](C(=O)N[C@@H](CO)C(=O)N[C@@H](CCCCN)C(=O)N[C@@H](CC(N)=O)C(=O)N[C@@H](Cc1ccccc1)C(=O)O)[C@@H](C)CC", "Fulfilled"),
    ("CC[C@H](C)[C@H](N)C(=O)N[C@@H](CCCCN)C(=O)N[C@H](C(=O)N[C@@H](CCCCN)C(=O)N[C@H](C(=O)N[C@@H](CCCCN)C(=O)N[C@H](C(=O)N[C@@H](CCCCN)C(N)=O)[C@@H](C)CC)[C@@H](C)CC)[C@@H](C)CC", "Not fulfilled"),
    ("CC[C@H](C)[C@H](NC(=O)[C@@H](NC(=O)[C@H](C)NC(=O)[C@H](CCCCN)NC(=O)[C@H](C)NC(=O)[C@@H](NC(=O)[C@H](CCCCN)NC(=O)CNC(=O)[C@H](CC(C)C)NC(=O)[C@H](C)NC(=O)[C@@H](NC(=O)CNC(=O)[C@H](C)NC(=O)[C@H](CCCCN)NC(=O)[C@@H](NC(=O)[C@H](C)NC(=O)[C@H](CCSC)NC(=O)CN)[C@@H](C)O)[C@@H](C)O)C(C)C)C(C)C)C(=O)NCC(=O)N[C@@H](C)C(=O)N[C@@H](C)C(=O)N[C@@H](CC(C)C)C(N)=O", "Not fulfilled"),
]

Query block: Problem: For the compound CC[C@H](C)[C@H](NC(=O)[C@H](CCCCN)NC(=O)[C@H](CCCCN)NC(=O)[C@H](C)NC(=O)[C@@H](NC(=O)[C@H](C)NC(=O)[C@H](CC(C)C)NC(=O)[C@H](C)NC(=O)[C@H](C)NC(=O)[C@H](CCCCN)NC(=O)[C@H](CC(C)C)NC(=O)[C@H](CC(N)=O)NC(=O)[C@@H](N)CC(C)C)C(C)C)C(=O)N[C@@H](CC(C)C)C(N)=O , is MIC under 20 µM?
Result block: Fulfilled

Query block: Problem: For the compound CC(C)C[C@H](NC(=O)[C@H](CC(C)C)NC(=O)[C@H](CCCCN)NC(=O)[C@H](CCCCN)NC(=O)[C@H](CC(C)C)NC(=O)[C@H](CC(C)C)NC(=O)[C@H](CCCCN)NC(=O)[C@H](CCCCN)NC(=O)[C@H](CC(C)C)NC(=O)[C@H](CC(C)C)NC(=O)[C@H](CCCCN)NC(=O)[C@H](CCCCN)NC(=O)[C@H](CC(C)C)NC(=O)[C@@H](N)CC(C)C)C(=O)N[C@@H](CCCCN)C(=O)N[C@@H](CCCCN)C(N)=O , is MIC under 20 µM?
Result block: Fulfilled

Query block: Problem: For the compound C[C@H](NC(=O)[C@H](C)NC(=O)[C@H](C)NC(=O)[C@H](Cc1c[nH]c2ccccc12)NC(=O)[C@H](Cc1ccccc1)NC(=O)[C@H](C)NC(=O)[C@H](C)NC(=O)[C@H](C)NC(=O)[C@H](C)NC(=O)[C@H](CCCCN)NC(=O)[C@H](CCCCN)NC(=O)[C@H](CCCCN)NC(=O)[C@H](CCCCN)NC(=O)[C@H](CCCCN)NC(=O)[C@@H](N)CCCCN)C(=O)N[C@@H](C)C(=O)N[C@@H](Cc1ccccc1)C(N)=O , is MIC under 20 µM?
Result block: Fulfilled

Query block: Problem: For the compound CC(C)C[C@H](NC(=O)CN)C(=O)N[C@@H](CC(C)C)C(=O)N[C@@H](CC(=O)O)C(=O)N[C@@H](CC(C)C)C(=O)N[C@@H](CC(C)C)C(=O)N[C@@H](CCCCN)C(=O)N[C@@H](CC(C)C)C(=O)N[C@@H](CC(C)C)C(=O)N[C@@H](CC(C)C)C(=O)N[C@@H](CCCCN)C(=O)N[C@@H](C)C(=O)N[C@@H](C)C(=O)NCC(=O)O , is MIC under 20 µM?
Result block: Not fulfilled

----------
Assay system Escherichia coli ATCC 2592; read-out recorded as MIC.
Please state the figure in µM; there is no need to write the unit.

# cpd.smiles, result.units, MIC
rows = [
    ("C[C@H](NC(=O)[C@H](Cc1ccccc1)NC(=O)[C@H](CCCCN)NC(=O)[C@H](CCCCN)NC(=O)[C@H](C)NC(=O)[C@H](Cc1ccccc1)NC(=O)[C@H](CCCCN)NC(=O)[C@H](CCCCN)NC(=O)[C@H](C)NC(=O)[C@H](Cc1ccccc1)NC(=O)[C@H](CCCCN)NC(=O)[C@H](CCCCN)NC(=O)[C@H](C)NC(=O)[C@H](Cc1ccccc1)NC(=O)[C@H](CCCCN)NC(=O)[C@H](CCCCN)NC(=O)[C@H](C)NC(=O)[C@H](Cc1ccccc1)NC(=O)[C@@H](N)CCCCN)C(=O)N[C@@H](CCCCN)C(=O)O", "µM", 9.46),
]

Proceed to the following item.
Simply: CC(C)[C@H](NC(=O)[C@H](CCCCN)NC(=O)[C@@H](NC(=O)[C@H](CCCCN)NC(=O)[C@H](Cc1ccccc1)NC(=O)[C@H](CCCCN)NC(=O)[C@@H](NC(=O)[C@H](CCCCN)NC(=O)[C@@H](N)Cc1ccccc1)C(C)C)C(C)C)C(=O)N[C@@H](CCCCN)C(=O)O , Escherichia coli ATCC 2592, MIC = 10

----------
Assay system Escherichia coli ATCC 25922; read-out recorded as MIC.
Phrase the answer as number then unit, nothing more needed.

# cpd.smiles, MIC
measured = [
    ("CC(C)C[C@H](NC(=O)[C@H](CC(C)C)NC(=O)[C@H](CCCCN)NC(=O)CNC(=O)[C@H](C)NC(=O)[C@H](CC(C)C)NC(=O)[C@H](CO)NC(=O)[C@H](CC(C)C)NC(=O)[C@H](CC(C)C)NC(=O)[C@H](CO)NC(=O)[C@H](CC(C)C)NC(=O)[C@H](CC(C)C)NC(=O)CN)C(N)=O", "3.1 µM"),
]

Simply: C[C@H](NC(=O)[C@H](C)NC(=O)[C@H](CCCCN)NC(=O)[C@H](C)NC(=O)[C@H](C)NC(=O)[C@H](C)NC(=O)[C@H](CCCCN)NC(=O)[C@H](Cc1ccccc1)NC(=O)[C@@H](N)Cc1c[nH]c2ccccc12)C(=O)N[C@@H](C)C(=O)N[C@@H](CCCCN)C(=O)N[C@@H](Cc1ccccc1)C(=O)N[C@@H](Cc1c[nH]c2ccccc12)C(N)=O , Escherichia coli ATCC 25922, MIC = 4 µM

----------
Assay system Escherichia coli UB1005; read-out recorded as MIC.
Please state the figure in µM; there is no need to write the unit.

# molecule, MIC [µM]
records = [
    ("CC[C@H](C)[C@H](NC(=O)[C@H](CCCN=C(N)N)NC(=O)[C@H](C)NC(=O)[C@H](C)N)C(=O)N[C@H](C(=O)N[C@@H](CC(C)C)C(=O)N[C@@H](CCCN=C(N)N)C(=O)N[C@@H](C)C(=O)N[C@@H](CCCN=C(N)N)C(=O)N[C@@H](Cc1ccccc1)C(=O)N[C@@H](CCCN=C(N)N)C(N)=O)[C@@H](C)CC [AARIILRARFR]", 2),
    ("CC(=O)N[C@@H](Cc1c[nH]c2ccccc12)C(=O)N[C@@H](CCCN=C(N)N)C(=O)N[C@@H](CCCCN)C(=O)N[C@@H](CC(C)C)C(=O)N[C@@H](Cc1c[nH]c2ccccc12)C(=O)N[C@@H](CCCN=C(N)N)C(=O)NCC(=O)NCC(=O)N[C@@H](CC(C)C)C(=O)N[C@@H](CCCCN)C(=O)N[C@@H](CCCN=C(N)N)C(=O)N[C@@H](Cc1c[nH]c2ccccc12)C(=O)N[C@@H](CC(C)C)C(=O)N[C@@H](CCCCN)C(N)=O [WRKLWRGGLKRWLK]", 4),
]

Proceed to the following item.
Simply: CC[C@H](C)[C@H](NC(=O)[C@H](C)NC(=O)[C@H](C)NC(=O)[C@H](CCC(N)=O)NC(=O)CNC(=O)[C@H](CC(C)C)NC(=O)[C@H](Cc1cnc[nH]1)NC(=O)[C@H](CCCCN)NC(=O)[C@H](C)NC(=O)CNC(=O)[C@H](CCCCN)NC(=O)[C@H](CCCNC(=N)N)NC(=O)[C@H](CC(C)C)NC(=O)[C@H](Cc1c[nH]c2ccccc12)NC(=O)[C@H](CCCCN)NC(=O)[C@H](CCCCN)NC(=O)[C@H](Cc1c[nH]c2ccccc12)NC(=O)CN)C(=O)N[C@@H](CCCCN)C(C)=O [GWKKWLRKGAKHLGQAAIK] , Escherichia coli UB1005, MIC = 0.919
